System: Peroxisome proliferator-activated receptor gamma (Homo sapiens) (UniProt P37231)
Sequence (P37231 whole entry): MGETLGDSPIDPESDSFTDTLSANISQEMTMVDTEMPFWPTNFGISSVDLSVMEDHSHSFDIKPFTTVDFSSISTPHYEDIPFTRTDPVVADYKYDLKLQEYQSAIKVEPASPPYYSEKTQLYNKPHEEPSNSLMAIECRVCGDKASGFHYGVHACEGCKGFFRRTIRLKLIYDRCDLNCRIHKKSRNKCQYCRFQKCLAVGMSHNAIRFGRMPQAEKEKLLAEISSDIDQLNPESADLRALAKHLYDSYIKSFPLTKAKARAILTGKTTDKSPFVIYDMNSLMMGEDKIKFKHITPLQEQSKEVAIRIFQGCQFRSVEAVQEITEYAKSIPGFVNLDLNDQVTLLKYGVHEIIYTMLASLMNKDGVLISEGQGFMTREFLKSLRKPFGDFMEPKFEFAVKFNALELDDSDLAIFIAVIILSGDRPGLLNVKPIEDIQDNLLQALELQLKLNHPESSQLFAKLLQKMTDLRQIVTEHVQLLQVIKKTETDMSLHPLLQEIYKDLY
Method Description: Binding affinity to PPARgamma (unknown origin)
Calls of active or inactive are those of the source. No cut-off for these calls is given here.
Tick one outcome: active, inactive

>  <Molecule>
CC(C)NC(=O)c1cc([N+](=O)[O-])ccc1Cl

>  <Cat>
active

$$$$
>  <Molecule>
Cc1cccc(NC(=O)c2cc([N+](=O)[O-])ccc2Cl)c1

>  <Cat>
active

$$$$
>  <Molecule>
O=C(NCc1ccccc1)c1cc([N+](=O)[O-])ccc1Cl

>  <Cat>
active

$$$$
>  <Molecule>
O=C(Nc1ccsc1)c1cc([N+](=O)[O-])ccc1Cl

>  <Cat>
active

$$$$
>  <Molecule>
C=CCNC(=O)c1cc([N+](=O)[O-])ccc1Cl

>  <Cat>
active

$$$$

query: # lookup: test call for `Cc1ccccc1NC(=O)c1cc([N+](=O)[O-])ccc1Cl`
result: active

query: Moving on to `O=C(NC1CCCCC1)c1cc([N+](=O)[O-])ccc1Cl`
result: active

query: Moving on to `O=C(c1cc([N+](=O)[O-])ccc1Cl)n1cccc1`
result: inactive

query: Moving on to `O=C(Nc1ccc([N+](=O)[O-])cc1)c1cc([N+](=O)[O-])ccc1Cl`
result: active

query: Moving on to `Cc1ccc(NC(=O)c2cc([N+](=O)[O-])ccc2Cl)cc1`
result: active

query: Moving on to `O=C(Nc1ccccc1)c1cc(Cl)ccc1[N+](=O)[O-]`
result: inactive

query: Moving on to `COc1ccc(NC(=O)c2cc([N+](=O)[O-])ccc2Cl)cc1`
result: active
